All figures here come from patent US8017612B2.

- system_under_test: HCV polymerase (NS5B) type 1a (Hepatitis C virus genotype 1a)
- Construct: made in house; host or cells: Escherichia coli (by the 'similar method' of the 1b enzyme)
- measurement_notes: Assay of enzyme (HCV polymerase) inhibitory activity, type 1a enzyme
- Type: biochemical, HCV type 1a (cloned from the blood of patients)
- condition_description: HCV polymerase inhibitory activity IC50, 1a, type 1a enzyme
property: IC50

The following compounds have reported results that may help.
O=C(NCc1ccc(OC(F)(F)F)cc1)[C@H]1CN(c2nc3nc(Cl)ncc3s2)CCN1S(=O)(=O)c1ccc(OC(F)F)cc1 : < 100 nM
Nc1nc(C(F)(F)F)nc2nc(N3CCN(S(=O)(=O)c4ccc(OC(F)(F)F)cc4)[C@@H](C(=O)NCc4ccc(OC(F)(F)F)cc4)C3)sc12 : < 100 nM

# context switch: different compound, same IC50
What measured IC50 is associated with CCCc1ccc(CNC(=O)[C@H]2CN(c3cnc4cncnc4n3)CCN2S(=O)(=O)c2ccc(OC(F)(F)F)cc2)cc1N on HCV polymerase (NS5B) type 1a (Hepatitis C virus genotype 1a)? 100 to 1000 nM

====

pIC50 for assorted compounds
- system_under_test: HCV polymerase (NS5B) type 1a (Hepatitis C virus genotype 1a, UniProt P26664)
- Construct: made in house; host or cells: Escherichia coli (by the 'similar method' of the 1b enzyme)
- measurement_notes: Assay of enzyme (HCV polymerase) inhibitory activity, type 1a enzyme
- Assay type: biochemical, HCV type 1a (cloned from the blood of patients)
- condition_description: HCV polymerase inhibitory activity (IC50), 1a, type 1a enzyme 1.5 μg/ml, 25° C., 60 min
- Description: The evaluation of the HCV polymerase inhibitory activity of the compound of the present invention is explained in the following. This polymerase is an enzyme coded for by the non-structural protein region called NS5B on the genome RNA of HCV. i) Preparation of Enzyme (HCV Polymerase) […] The HCV polymerase inhibitory activity (IC50) of the compound of the present invention was calculated from the values of radioactivity of the enzyme reaction with and without the test substance. […]
pIC50: −log10 of the molar value.

Value wanted: pIC50 (HCV polymerase (NS5B) type 1a (Hepatitis C virus genotype 1a, UniProt P26664)) of entry CCC(F)(F)c1ccc(CNC(=O)[C@H]2CN(C(=O)Nc3nnc(C(C)=O)s3)CCN2S(=O)(=O)c2ccc(OC(F)(F)F)cc2)cc1 < 6.00

Then CC(C)c1ccc(CNC(=O)[C@H]2CN(C(=O)Nc3ccc(N(C)C)cc3)CCN2S(=O)(=O)c2ccc(C(F)(F)F)cc2)cc1 ? < 6.00

Moving on to COc1ccc(S(=O)(=O)N2CCN(C(C)=O)C[C@@H]2C(=O)NCc2ccc(C(C)C)cc2)cc1C(=O)O < 6.00

// next record CCCc1ccc(CNC(=O)[C@H]2CN(c3cnc(C(=O)O)cn3)CCN2S(=O)(=O)c2ccc(OC(F)(F)F)cc2)cc1 > 7.00

What about CC(=O)N1CCN(S(=O)(=O)c2ccc(C(C)C)cc2)C(C(=O)NCc2ccc(C(=O)O)cc2)C1 (centres unmarked) ? < 6.00

====

Catalogue of IC50 values
- system_under_test: HCV polymerase (NS5B) type 1a (Hepatitis C virus genotype 1a, UniProt P26664)
- Construct: made in house; host or cells: Escherichia coli (by the 'similar method' of the 1b enzyme)
- measurement_notes: Assay of enzyme (HCV polymerase) inhibitory activity, type 1a enzyme
- Format: biochemical, HCV type 1a (cloned from the blood of patients)
- condition_description: HCV polymerase inhibitory activity (IC50), 1a, type 1a enzyme 1.5 μg/ml, 25° C., 60 min
Counter-ions that a name gives are not always drawn.

CCOC(=O)Cn1nnc(CC(=O)N2CCN(S(=O)(=O)c3ccc(OC(F)(F)F)cc3)[C@@H](C(=O)NCc3ccc(C(F)(F)CC)cc3)C2)n1 : < 100 nM
CCC(F)(F)c1ccc(CNC(=O)[C@H]2CN(C(=O)C3CC3)CCN2S(=O)(=O)c2ccc(OC(F)(F)F)cc2)cc1 : 100 to 1000 nM
CCCc1ccc(S(=O)(=O)N2CCN(C(C)=O)C[C@@H]2C(=O)NCc2ccc(CC)cc2)cc1 : 100 to 1000 nM
Cc1nc(N2CCN(S(=O)(=O)c3ccc(OC(F)(F)F)cc3)[C@@H](C(=O)NCc3ccc(N(C)C)cc3)C2)sc1C(=O)O [Example 379, hydrochloride] : < 100 nM
CC(=O)N1CCN(S(=O)(=O)c2ccc(C(C)C)cc2)[C@@H](C(=O)NCCc2c[nH]cn2)C1 [Example 433, hydrochloride] : > 1000 nM
CCN(CC)c1ccc(CNC(=O)[C@H]2CN(c3nc(C)c(C(=O)O)s3)CCN2S(=O)(=O)c2ccc(OC(F)(F)F)cc2)cc1 : < 100 nM

For CN(C)c1ccc(CNC(=O)C2CN(C(=O)Cc3cccnc3)CCN2S(=O)(=O)c2ccc(I)cc2)cc1 (stereo not drawn) , what is its reported IC50? 100 to 1000 nM

Also CCCc1ccc(CNC(=O)[C@H]2CN(c3nc4c(s3)CN(Cc3ccccc3)CC4)CCN2S(=O)(=O)c2ccc(OC(F)(F)F)cc2)cc1 , if possible. < 100 nM

Same question, CC(=O)N1CCN(S(=O)(=O)c2ccc(C(C)C)cc2)C(C(=O)NCc2ccc(C3CCCC3)cc2)C1 (stereo not drawn) this time 100 to 1000 nM

Entry CC(=O)N1CCN(S(=O)(=O)c2ccc(OC(F)(F)F)cc2)C(C(=O)NCc2ccc(C(F)(F)F)cc2)C1 (stereo not drawn) please > 1000 nM

Moving on to the next molecule: COC(=O)c1ccc(S(=O)(=O)N2CCN(C(C)=O)CC2C(=O)NCc2ccc(C(F)(F)F)cc2)cc1 (stereo not drawn) > 1000 nM

What do you have for CCCc1ccc(CNC(=O)[C@H]2CN(c3cnc(C(=O)O)cn3)CCN2S(=O)(=O)c2ccc(CC)cc2)cc1 ? < 100 nM
